Ref: patent US4642340A

# TEST: physchem
# MEASUREMENT CONDITIONS: solid storage, Titre of glucosamine
ENDPOINT NAME: remaining at 8 h (%)
Kindly provide the numeric value in % only, without the unit symbol.

Look up remaining at 8 h: N[C@H]1C(O)O[C@H](CO)[C@@H](O)[C@@H]1O.O=S(=O)(O)O (stereo partly shown) [Glucosamine sulphate, glucosamine sulphate]
95.8

---

# TEST: Acute toxicity in mice
# Parameters: species or system Swiss NMRI mice
# MEASUREMENT CONDITIONS: mouse, in vivo, iv, endovenous, max. dose 1875 mg/kg
ENDPOINT NAME: mortality at 240 h (%)
Kindly provide the numeric value in % only, without the unit symbol.

Look up mortality at 240 h: N[C@H]1C(O)O[C@H](CO)[C@@H](O)[C@@H]1O (stereo partly shown)
0
